Listed here: items and their measured growth inhibition.
# runDescription: NCI Yeast Anticancer Drug Screen. Data for the mec2-1 strain (AID 157)
# runConditions: S. cerevisiae mec2-1 strain, at 50.0 µM, stronger effect = higher value
This is part of a sample that, as a whole, favours compounds with a hit. Of some 79,000 tested, about 15% had one in any assay.
Write it as a number; the unit % goes unstated.

compound: c1cncc(C2c3[nH]c4ccccc4c3CCN2CCN2CCCCC2)c1 (configuration not stated)
growth inhibition (%): -46.5
--
compound: CC12CC(O)C(C=C1c1ccccc1)C2(C)C (configuration not stated)
growth inhibition (%): -0.95
--
compound: O=C(O)c1cc(C(=O)O)c(-c2ccccc2)c(-c2ccccc2)c1
growth inhibition (%): 2.25
--
compound: C/C=C1\C(=O)OC2CCN3CCC(COC(=O)C(C)(O)C(C)C1O)C23 (configuration not stated)
growth inhibition (%): -7.65
--
compound: Cc1cccc(C)c1N=Nc1ccc(O)c(CN(C)C)c1
growth inhibition (%): -14.7
--
compound: CCc1ccc(/C(C#N)=C/c2ccc(N(C)CCC#N)cc2)cc1
growth inhibition (%): 2.8
--
compound: CN(C)c1ccc(C=C2C(=O)CC(C)(C)CC2=O)cc1
growth inhibition (%): 10.2
--
compound: S=C(Nc1ccc2ccccc2c1)Nc1ccc2ccccc2c1
growth inhibition (%): 10.9

-- ask Could you please provide reported growth inhibition for Cc1ccc(S(=O)(=O)OC2C3OC(C)(C)OC3OC2C2CSC(=S=O)S2)cc1 (configuration not stated) ? Thanks!
-- reply -0.6

-- ask Please report the measured growth inhibition for CNC(=O)c1cc(OC)ccc1O
-- reply -9.7

-- ask Give reported growth inhibition value for CC(=O)C[n+]1ccccc1Oc1ccccc1
-- reply 4.15

-- ask Quick one: give measured growth inhibition for O=C(NC1CC/C=C(/c2ccccc2)CC(Cl)C1)c1ccccc1 (configuration not stated)
-- reply 4.9

-- ask Respond only with growth inhibition recorded for O=C(CSCC(=O)c1ccc([N+](=O)[O-])cc1)c1ccc([N+](=O)[O-])cc1
-- reply -29.6
